src = ChEMBL document CHEMBL4028801

Molecular target: ATP-binding cassette sub-family C member 4 (Homo sapiens, UniProt O15439)
Sequence (O15439 whole entry): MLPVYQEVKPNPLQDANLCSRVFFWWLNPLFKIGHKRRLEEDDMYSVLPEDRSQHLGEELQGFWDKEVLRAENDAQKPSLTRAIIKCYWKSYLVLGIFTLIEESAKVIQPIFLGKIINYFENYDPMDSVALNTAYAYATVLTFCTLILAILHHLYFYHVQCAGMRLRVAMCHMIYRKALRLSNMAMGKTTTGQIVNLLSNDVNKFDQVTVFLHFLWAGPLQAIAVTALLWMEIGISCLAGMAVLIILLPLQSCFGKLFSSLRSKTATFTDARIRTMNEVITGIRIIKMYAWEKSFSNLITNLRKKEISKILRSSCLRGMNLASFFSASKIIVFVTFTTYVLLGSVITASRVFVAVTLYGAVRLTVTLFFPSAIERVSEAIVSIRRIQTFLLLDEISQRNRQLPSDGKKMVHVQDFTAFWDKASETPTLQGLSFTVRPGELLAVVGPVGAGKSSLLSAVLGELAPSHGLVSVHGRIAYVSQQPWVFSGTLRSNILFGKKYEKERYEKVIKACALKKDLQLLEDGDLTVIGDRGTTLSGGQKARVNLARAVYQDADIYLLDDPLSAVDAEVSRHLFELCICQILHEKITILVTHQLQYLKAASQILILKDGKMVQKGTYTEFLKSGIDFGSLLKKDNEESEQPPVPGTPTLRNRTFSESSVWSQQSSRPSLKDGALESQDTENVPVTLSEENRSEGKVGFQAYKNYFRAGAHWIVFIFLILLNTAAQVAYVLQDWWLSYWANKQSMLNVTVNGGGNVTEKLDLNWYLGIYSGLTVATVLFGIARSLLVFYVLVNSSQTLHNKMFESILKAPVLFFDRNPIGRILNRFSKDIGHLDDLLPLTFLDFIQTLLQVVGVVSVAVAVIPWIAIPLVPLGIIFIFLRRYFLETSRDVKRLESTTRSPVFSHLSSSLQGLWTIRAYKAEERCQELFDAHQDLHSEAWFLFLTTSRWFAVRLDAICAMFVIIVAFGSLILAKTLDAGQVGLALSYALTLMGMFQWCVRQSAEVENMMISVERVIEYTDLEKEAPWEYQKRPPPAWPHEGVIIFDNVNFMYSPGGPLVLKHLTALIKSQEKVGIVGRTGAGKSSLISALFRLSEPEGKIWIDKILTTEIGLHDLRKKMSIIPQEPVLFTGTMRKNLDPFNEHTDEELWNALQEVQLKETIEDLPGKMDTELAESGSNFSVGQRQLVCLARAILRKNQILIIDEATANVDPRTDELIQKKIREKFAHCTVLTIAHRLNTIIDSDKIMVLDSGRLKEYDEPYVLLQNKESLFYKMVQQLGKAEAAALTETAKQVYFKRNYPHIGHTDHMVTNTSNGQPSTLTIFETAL
Experiment: Inhibition of human MRP4 overexpressed in Sf9 cell membrane vesicles assessed as uptake of [3H]-estradiol-17beta-D-glucuronide in presence of ATP and GSH measured after 20 mins by membrane vesicle transport assay
Structures can show the parent of a compound that is named as a salt.
quantityKind: IC50

compound	assayValue
CC(=O)N1CCN(c2ccc(OCC3COC(Cn4ccnc4)(c4ccc(Cl)cc4Cl)O3)cc2)CC1 (configuration not stated)	69 µM
Cc1cn([C@@H]2C[C@@H](O)[C@H](CO)O2)c(=O)[nH]c1=O	> 133 µM
C[C@]12CCC(=O)C=C1[C@@H]1C[C@@H]1[C@H]1[C@@H]3[C@@H]4C[C@@H]4[C@@]4(CCC(=O)O4)[C@@]3(C)CC[C@@H]12	37.9 µM
CO/N=C(\C(=O)N[C@@H]1C(=O)N2C(C(=O)OC(C)OC(C)=O)=C(COC(N)=O)CS[C@H]12)c1ccco1 (some centres not stated)	28 µM
C=C1[C@H](CO)[C@@H](O)C[C@@H]1n1cnc2c(=O)[nH]c(N)nc21	> 133 µM
CCCCCNC(=N)N/N=C/c1c[nH]c2ccc(OC)cc12 [TEGASEROD MALEATE]	> 133 µM

Quick one: give me IC50 for each item below, same order please.
1. CC[C@H]1CN2CCc3cc(OC)c(OC)cc3[C@@H]2C[C@@H]1C[C@H]1NCCc2cc(OC)c(OC)cc21
2. Cn1cnc([N+](=O)[O-])c1Sc1ncnc2nc[nH]c12
3. CN1CCN(C2=Nc3ccccc3Oc3ccc(Cl)cc32)CC1.O=C(O)CCC(=O)O [LOXAPINE SUCCINATE]
4. CCN(CC)C(=S)SSC(=S)N(CC)CC
5. COc1ccc(Cl)cc1[C@]1(F)C(=O)Nc2cc(C(F)(F)F)ccc21
6. CC(=O)SCC(Cc1ccccc1)C(=O)NCC(=O)OCc1ccccc1 (configuration not stated)

Result:
> 133 µM
> 133 µM
> 133 µM
> 133 µM
> 133 µM
> 133 µM

Give me IC50 for each of these compounds, listed below.
1. CCCSc1ccc2nc(NC(=O)OC)[nH]c2c1
2. COc1cc(C)c(/C=C/C(C)=C/C=C/C(C)=C/C(=O)O)c(C)c1C
3. O=S(=O)(O)CCS
4. CCc1nn(CCCN2CCN(c3cccc(Cl)c3)CC2)c(=O)n1CCOc1ccccc1
5. S=P(N1CC1)(N1CC1)N1CC1

Result:
["> 133 µM", "49 µM", "> 133 µM", "71 µM", "> 133 µM"]
